target: Ubiquitin carboxyl-terminal hydrolase 8 (Homo sapiens); test: blocks human USP8 ubiquitin-rhodamine cleavage (AID 1645853); details: purified USP8, Ub-rhodamine cleavage fluorescence, 30 min; at 20 µM
Screen size: about 47,000 compounds; about 2,000 (4.3%) were called active. No stated cut-off is given here; in the data, active means inhibition above about 30%; inactive means the rest. Many of the other results were omitted from the sample, so actives are more common in it than they were.
Permitted responses: YES (active), NO (inactive)

COMPOUND	LABEL
O=C(O)c1ccc2c(=O)n3c(nc2c1)/C(=C/c1cccc(C(F)(F)F)c1)CC3	NO
COc1cccc(NC(=O)c2nnn(Cc3nc(-c4cccc(C)c4)oc3C)c2N)c1	NO
CCOc1ccc(-c2noc(-c3nn(-c4cccc(OC)c4)ccc3=O)n2)cc1	YES
CCN(C(=O)CSc1nnc(-c2ccncc2)o1)c1ccccc1	NO

Which outcome was entered for the compound Cc1cccc(N2CCN(S(=O)(=O)c3c[nH]c(-c4nnc(C)o4)c3)CC2C)c1 (stereo not given) in this test?
NO

Which outcome was entered for the compound CCc1ccccc1NC(=O)CSc1nnc(-c2ccncc2)o1 in this test?
YES

Which outcome was entered for the compound O=C(Nc1cccc2ccccc12)N1CCN(Cc2ccc3c(c2)OCO3)CC1 in this test?
YES

Which outcome was entered for the compound COC(=O)c1cc2c(ccn2C)n1CC(=O)N1CCN(Cc2ccc3c(c2)OCO3)CC1 in this test?
NO

Which outcome was entered for the compound COc1cccc(-c2cc3c(=O)n(Cc4nc(-c5ccccc5C)no4)ccn3n2)c1 in this test?
NO

Which outcome was entered for the compound O=C(O)c1c2c(nc3ccccc13)/C(=C/c1ccc(F)cc1)CCC2 in this test?
YES
